TARGET_OR_TEST_SYSTEM: MNK1a (Homo sapiens, UniProt Q9BUB5)
Sequence (Q9BUB5 1-424 isoform Q9BUB5-2): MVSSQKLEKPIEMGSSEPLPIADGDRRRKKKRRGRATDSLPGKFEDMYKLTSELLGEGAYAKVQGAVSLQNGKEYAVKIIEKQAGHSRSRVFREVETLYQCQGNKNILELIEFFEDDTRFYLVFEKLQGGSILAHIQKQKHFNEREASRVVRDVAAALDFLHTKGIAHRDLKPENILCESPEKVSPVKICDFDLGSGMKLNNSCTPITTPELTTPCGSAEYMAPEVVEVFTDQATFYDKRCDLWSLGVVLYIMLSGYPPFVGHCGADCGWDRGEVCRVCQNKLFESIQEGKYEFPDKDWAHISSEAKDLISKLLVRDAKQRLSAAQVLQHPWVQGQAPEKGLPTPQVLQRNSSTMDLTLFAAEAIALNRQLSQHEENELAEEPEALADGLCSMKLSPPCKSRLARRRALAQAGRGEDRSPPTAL
PROCEDURE_TEXT: MNK1 in vitro kinase assay (assay 2), Z'-LYTE
Format: biochemical
PROTOCOL_CONDITIONS: compound concentration of 1 μM
OUTCOME_MEASURE: inhibition at 1 µM (%)

Example results:
MOLECULE: Cc1cc(N=S2(=O)CCC2)cc2ncnc(Nc3ccc(F)cc3O[C@H]3CCOC3)c12
TARGET_OR_TEST_SYSTEM: MNK1a (Homo sapiens, UniProt Q9BUB5)
inhibition at 1 µM, %: 95
--
MOLECULE: Cc1cc(N=S(C)(C)=O)cc2ncnc(Nc3ccc(F)cc3OC3(C)CC3)c12
TARGET_OR_TEST_SYSTEM: MNK1a (Homo sapiens, UniProt Q9BUB5)
inhibition at 1 µM, %: 89
--
MOLECULE: CO[C@H]1CC[C@H](Oc2cc(F)ccc2Nc2ncnc3cc(N=S(C)(C)=O)cc(C)c23)CC1
TARGET_OR_TEST_SYSTEM: MNK1a (Homo sapiens, UniProt Q9BUB5)
inhibition at 1 µM, %: 100
--
MOLECULE: Cc1cc(N=S(C)(C)=O)cc2ncnc(Nc3ccc(F)cc3O[C@H]3CO[C@H]4[C@@H]3OC[C@@H]4O)c12
TARGET_OR_TEST_SYSTEM: MNK1a (Homo sapiens, UniProt Q9BUB5)
inhibition at 1 µM, %: 73

(A) Cc1cc(N=S(C)(=O)C2CCOCC2)cc2ncnc(Nc3ccc(F)cc3O[C@H]3CCOC3)c12 (some centres unmarked)
(B) CO[C@H]1CC[C@H](Oc2cc(F)ccc2Nc2ncnc3cc(N=S4(=O)CCN(C(=O)OC(C)(C)C)CC4)cc(C)c23)CC1
Prompt line: Field: lower inhibition at 1 µM | Options: A / B Answer format: the label of the selected item.
Response line: B
(B: 52%, A: 93%)

---

TARGET_OR_TEST_SYSTEM: MNK2a (Homo sapiens)
PROCEDURE_TEXT: MNK2a in vitro kinase assay (assay 1), ADP-Glo
PROTOCOL_CONDITIONS: preactivated GST-MNK2a, 20 μM ATP, read-out: MNK2 IC50
OUTCOME_MEASURE: IC50 (nM)

COMPOUND: Cc1cc(N=S(C)(=O)C2CC2)cc2ncnc(Nc3ccc(F)cc3O[C@@H]3CO[C@@H]4CCO[C@@H]43)c12 (stereo partly shown) [Example 2.114]
OUTCOME_MEASURE: IC50
UNITS_SYMBOL: nM
QUANTITATIVE_RESULT: 2

(A) CO[C@@H]1CCCC[C@H]1Oc1cc(F)ccc1Nc1ncnc2cc(N=S(C)(C)=O)cc(C)c12 [Example 2.67]
(B) Cc1cc(N=S(C)(C)=O)cc2ncnc(Nc3cccnc3OC3COCCOC3)c12 [Example 2.91]
Prompt line: Field: lower IC50 | Options: A / B Answer format: the label of the selected item.
Response line: A

---

TARGET_OR_TEST_SYSTEM: MNK2a (Homo sapiens, UniProt Q9HBH9)
Sequence (Q9HBH9 whole entry): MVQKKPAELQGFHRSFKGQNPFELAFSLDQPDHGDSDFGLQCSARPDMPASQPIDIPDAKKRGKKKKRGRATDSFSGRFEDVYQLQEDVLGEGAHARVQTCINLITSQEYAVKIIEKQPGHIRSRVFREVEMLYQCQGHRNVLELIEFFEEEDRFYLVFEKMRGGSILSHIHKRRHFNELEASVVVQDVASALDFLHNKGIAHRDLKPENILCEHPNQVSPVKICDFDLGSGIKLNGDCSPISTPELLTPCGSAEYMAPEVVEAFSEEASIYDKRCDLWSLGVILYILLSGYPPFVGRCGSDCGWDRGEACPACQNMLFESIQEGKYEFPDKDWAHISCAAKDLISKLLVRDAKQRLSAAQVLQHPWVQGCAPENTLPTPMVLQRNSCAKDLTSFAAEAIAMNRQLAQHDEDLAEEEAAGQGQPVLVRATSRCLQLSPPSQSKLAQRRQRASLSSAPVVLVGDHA
PROCEDURE_TEXT: MNK2a in vitro kinase assay (assay 1), ADP-Glo
PROTOCOL_CONDITIONS: preactivated GST-MNK2a, 20 μM ATP, read-out: MNK2 IC50
pIC50: −log10 of the molar value.
OUTCOME_MEASURE: pIC50

Example results:
CHEM_SMILES: Cc1cc(N=S2(=O)CCCC2)cc2ncnc(Nc3ccc(F)cc3O[C@H]3CC[C@H](O)CC3)c12
TARGET_OR_TEST_SYSTEM: MNK2a (Homo sapiens, UniProt Q9HBH9)
pIC50: 8.70
--
CHEM_SMILES: Cc1cc(N=S(C)(C)=O)cc2ncnc(Nc3ccccc3OC3CCOCC3)c12
TARGET_OR_TEST_SYSTEM: MNK2a (Homo sapiens, UniProt Q9HBH9)
pIC50: 7.68
--
CHEM_SMILES: CO[C@H]1CC[C@H](Oc2cc(F)ccc2Nc2ncnc3cc(N=S4(=O)CCN(C)CC4)cc(C)c23)CC1
TARGET_OR_TEST_SYSTEM: MNK2a (Homo sapiens, UniProt Q9HBH9)
pIC50: 8.30

(I) CO[C@H]1CC[C@H](Oc2cc(F)ccc2Nc2ncnc3cc(N=S4(=O)CCNCC4)cc(C)c23)CC1
(II) CS(C)(=O)=Nc1cc(SCF)c2c(Nc3ccc(F)cc3O[C@H]3CCOC3)ncnc2c1
Prompt line: // which entry has the larger pIC50 value, I or II ? Answer format: the label of the selected item.
Response line: II
(II: 8.30, I: 8.10)

---

TARGET_OR_TEST_SYSTEM: MNK1a (Homo sapiens, UniProt Q9BUB5)
PROCEDURE_TEXT: MNK1 in vitro kinase assay (assay 2), Z'-LYTE
PROTOCOL_CONDITIONS: pre-activated GST-MNK1a
pIC50: −log10 of the molar value.
OUTCOME_MEASURE: pIC50

COMPOUND: O=S1(=Nc2cc(Cl)c3c(Nc4ccc(F)cc4O[C@@H]4CO[C@@H]5CCO[C@@H]54)ncnc3c2)CCC1 [Example 1.27]
pIC50: 7.96

(A) Cc1cc(N=S(C)(=O)CCN2CCCC2)cc2ncnc(Nc3ccc(F)cc3O[C@H]3CC[C@H](O)CC3)c12 (stereo partly drawn) [Example 2.107]
(B) CO[C@@H]1CO[C@H]2[C@@H]1OC[C@H]2Oc1cc(F)ccc1Nc1ncnc2cc(N=S(C)(C)=O)cc(C)c12 [Example 2.34]
Prompt line: // which entry has the larger pIC50 value, A or B ? Answer format: the label of the selected item.
Response line: B
(B: 7.77, A: 6.99)

---

TARGET_OR_TEST_SYSTEM: MNK2a (Homo sapiens, UniProt Q9HBH9)
PROCEDURE_TEXT: MNK2a in vitro kinase assay (assay 1), ADP-Glo
PROTOCOL_CONDITIONS: preactivated GST-MNK2a, 20 μM ATP, read-out: MNK2 IC50
OUTCOME_MEASURE: IC50 (nM)

Example results:
COMPOUND: CS(C)(=O)=Nc1cc(F)c2c(Nc3ccc(F)cc3OC3CCCC3)ncnc2c1
TARGET_OR_TEST_SYSTEM: MNK2a (Homo sapiens, UniProt Q9HBH9)
OUTCOME_MEASURE: IC50
QUANTITATIVE_RESULT: 3

COMPOUND: Cc1cc(N=S(C)(C)=O)cc2ncnc(Nc3ccc(F)nc3O[C@H]3CCOC3)c12
TARGET_OR_TEST_SYSTEM: MNK2a (Homo sapiens, UniProt Q9HBH9)
OUTCOME_MEASURE: IC50
QUANTITATIVE_RESULT: 3

COMPOUND: CCS(C)(=O)=Nc1cc(C)c2c(Nc3ccc(F)cc3O[C@@H]3CO[C@H]4[C@@H]3OC[C@H]4O)ncnc2c1 (stereo partly shown)
TARGET_OR_TEST_SYSTEM: MNK2a (Homo sapiens, UniProt Q9HBH9)
OUTCOME_MEASURE: IC50
QUANTITATIVE_RESULT: 3

COMPOUND: Cc1cc(N=S(C)(C)=O)cc2ncnc(Nc3ccc(F)cc3OC3CC3)c12
TARGET_OR_TEST_SYSTEM: MNK2a (Homo sapiens, UniProt Q9HBH9)
OUTCOME_MEASURE: IC50
QUANTITATIVE_RESULT: 4

COMPOUND: Cc1cc(N=[S@](C)(=O)c2ccccc2)cc2ncnc(Nc3ccc(F)cc3O[C@H]3CCOC3)c12
TARGET_OR_TEST_SYSTEM: MNK2a (Homo sapiens, UniProt Q9HBH9)
OUTCOME_MEASURE: IC50
QUANTITATIVE_RESULT: 30

(1) CCS(C)(=O)=Nc1cc(C)c2c(Nc3ccc(F)cc3OC3CCOC3)ncnc2c1 (single isomer, unassigned) [Example 7.14]
(2) CO[C@H]1CC[C@H](Oc2cc(F)ccc2Nc2ncnc3cc(N=S4(=O)CCOCC4)cc(C)c23)CC1
Prompt line: Field: lower IC50 | Options: 1 / 2 Answer format: the label of the selected item.
Response line: 2
(2: 4 nM, 1: 7 nM)

---

TARGET_OR_TEST_SYSTEM: MNK2a (Homo sapiens)
PROCEDURE_TEXT: MNK2a in vitro kinase assay (assay 1), ADP-Glo
PROTOCOL_CONDITIONS: preactivated GST-MNK2a, 20 μM ATP, read-out: MNK2 IC50
pIC50: −log10 of the molar value.
OUTCOME_MEASURE: pIC50

MOLECULE: CCS(C)(=O)=Nc1cc(C)c2c(Nc3cccnc3O[C@H]3CC[C@H](O)CC3)ncnc2c1 (stereo partly drawn) [Example 2.44]
QUANTITATIVE_RESULT: 8.52

MOLECULE: CS(C)(=O)=Nc1cc(C2CC2)c2c(Nc3ccc(F)cc3O[C@H]3CCOC3)ncnc2c1 [Example 1.15]
QUANTITATIVE_RESULT: 8.52

MOLECULE: Cc1cc(N=[S@@](C)(=O)c2ccccc2)cc2ncnc(Nc3ccc(F)cc3O[C@H]3CCOC3)c12 [Example 2.64]
QUANTITATIVE_RESULT: 8.52
